Target: FYN (Mus musculus, UniProt P39688)
Construct: […]; from tissue; host or cells: mouse brain
Sequence (P39688 whole entry): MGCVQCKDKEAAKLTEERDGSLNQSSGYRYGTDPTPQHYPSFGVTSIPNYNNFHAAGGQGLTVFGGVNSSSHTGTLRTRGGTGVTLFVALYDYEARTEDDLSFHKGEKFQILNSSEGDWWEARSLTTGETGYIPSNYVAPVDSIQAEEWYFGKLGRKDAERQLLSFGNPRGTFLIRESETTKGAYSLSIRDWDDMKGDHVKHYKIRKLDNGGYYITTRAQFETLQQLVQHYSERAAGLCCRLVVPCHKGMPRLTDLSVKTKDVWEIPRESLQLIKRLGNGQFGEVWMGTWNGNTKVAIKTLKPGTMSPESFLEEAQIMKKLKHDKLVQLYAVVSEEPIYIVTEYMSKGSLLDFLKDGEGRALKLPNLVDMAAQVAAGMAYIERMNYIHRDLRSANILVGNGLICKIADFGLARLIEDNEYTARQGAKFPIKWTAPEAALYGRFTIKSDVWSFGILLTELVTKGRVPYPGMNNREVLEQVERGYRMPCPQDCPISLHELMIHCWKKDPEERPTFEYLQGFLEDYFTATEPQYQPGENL
Test: Kinobeads elution with test compound, mouse brain lysate, MS
Format: binding
Settings: kinase released from kinobeads by specific elution
observation type: number of identified peptides, FYN

Some molecules with known number of identified peptides, FYN results, for comparison:
CC(C)[C@H](CO)Nc1nc(Nc2ccc(C(=O)O)c(Cl)c2)c2ncn(C(C)C)c2n1 [Purvalanol B, reference compound]	6
CNC1CC2OC(C)(C1OC)n1c3ccccc3c3c4c(c5c6ccccc6n2c5c31)C(=O)NC4 (stereo not shown) [CZC9280]	6

a = CCCCCCCCCCCCOS(=O)(=O)[O-].[Na+] [SDS]
b = Cn1c(=O)c(-c2c(Cl)cccc2Cl)cc2cnc(Nc3ccc(CN)cc3)cc21 [CZC7324]
Ask: Between these two entries, a and b , state which has the higher number of identified peptides, FYN. Give the label of your selection.
Reply: a
